system: CHIKV; type: cell-based, chikungunya virus
measure: Score_si4
Quick one: just the number, no unit, thanks!

// known answers, use as guide
[
  {
    "substance": "Hs_BRD8_1 (TGCAATGACATTGCAACGAAA; chemistry not given here)",
    "measure": "Score_si4",
    "measured-value": 0.57
  },
  {
    "substance": "Hs_AOF2_2 (ACATCTTACCTTAGTCATCAA; chemistry not given here)",
    "measure": "Score_si4",
    "measured-value": 0.88
  },
  {
    "substance": "Hs_PD2_1 (ACCGAGGAAGAAATATACAAA; chemistry not given here)",
    "measure": "Score_si4",
    "measured-value": 1.16
  },
  {
    "substance": "Hs_SULF1_3 (sense CTGGTGTTTGCGTACAGTTAA; chemistry not given here) [reference compound]",
    "measure": "Score_si4",
    "measured-value": -0.77
  },
  {
    "substance": "Hs_COPS2_4 (sense ATCCATTAATTCTATTCTTGA; chemistry not given here)",
    "measure": "Score_si4",
    "measured-value": 1.19
  }
]

Looking up Hs_PMPCB_4 (TACATTTATAATAGGAGTCCA; chemistry not given here) , I found its Score_si4 recorded as 0.83

The value of Score_si4 measured for the substance s994 (GAGGAAGTCCTAAATCACA; chemistry not given here) [reference compound] turned out to be 1.87

Please fill in: Score_si4 reported for s19090 (sense GGATCTGACTATTCGCACT; chemistry not given here) [reference compound] = 0.04

The substance listed as Hs_SHC2_10 (sense GCGGTTTGTCCTACAAGTTTA; chemistry not given here) shows Score_si4 equal to 0.47

* * *

tested on: CHIKV; format: cell-based, chikungunya virus
Label TRUE when Score_si1 < 2; otherwise FALSE.

[
  {
    "substance": "Hs_KRTHA2_1 (sense CAGATGGAGGAGCTTAACCAA; chemistry not given here)",
    "class-label": "TRUE"
  }
]

Lab note: confirm whether the reported Score_si1 for this substance is below 2, equality not counting. substance: s31660 (CTGTCACACTCACTGAAAA; chemistry not given here)
TRUE

Does this substance meet the criterion Score_si1 < 2? Hs_UMPS_2 (CAGGAGAAACCTGTTTAATCA; chemistry not given here)
FALSE

Determine if Hs_MAZ_2 (CCGCGACGTCTACCACCTGAA; chemistry not given here) shows Score_si1 strictly lower than 2.
FALSE

Please let me know if Hs_TMPIT_1 (sense CTGGTGGGTGTTCCATCACTA; chemistry not given here) shows Score_si1 below 2.
FALSE

Quick check: Score_si1 of Hs_SREBF2_3 (sense CTGCAATTTGTCAGTAATCAA; chemistry not given here) under 2?
FALSE

hey, is Score_si1 for Hs_CCDC6_1 (sense ATGGATAATTATCGTATATTA; chemistry not given here) [reference compound] lower than 2 or not?
TRUE

Is Score_si1 of Hs_DMAP1_1 (GCGGATGTACGGGACATTCTA; chemistry not given here) strictly below 2?
FALSE

* * *

test system: CHIKV; assay type: cell-based, chikungunya virus
Classification field: enter True for Score_si1 values not below 2, False for values below it.

[
  {
    "substance": "Hs_PP3856_2 (CTGGCTGGAGTCAGTCCTCAT; chemistry not given here)",
    "class-label": "True"
  },
  {
    "substance": "Hs_CRSP7_2 (sense GAGAAATACCCTATTACCAAA; chemistry not given here) [reference compound]",
    "class-label": "False"
  },
  {
    "substance": "Hs_ANKRD9_1 (AAGAGAGGTATGGGACCTGAA; chemistry not given here)",
    "class-label": "True"
  },
  {
    "substance": "s3162 (CATTTCGACTGGATCATAT; chemistry not given here)",
    "class-label": "False"
  },
  {
    "substance": "Hs_HMGA1L4_1 (sense AAGCCTCAGCTCAAACTCAAA; chemistry not given here)",
    "class-label": "True"
  }
]

Check this substance for Score_si1 at or above 2: Hs_RARSL_3 (sense CACAGGAGTCTTCCTACAGTA; chemistry not given here) [reference compound]
False

Given Hs_KIAA0947_2 (sense CTGGCAGTTTATTGCTCTTAA; chemistry not given here) , state whether its Score_si1 is at least 2.
True

Each recorded value in this set is attributed to paper PMC4865845.
